Reported values of inhibition for individual entries
# assay_text: inhibitors of E-selectin induction by TNFa, primary screen, imaging, HUVEC, immunofluorescence, MLSMR starter and 10KST1 sets (AID 487);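 note: signal is fraction of cell area covered by stained E-selectin grains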
# conditions: HUVEC TNFalpha-induced E-selectin immunofluorescence imaging, at 2 µM; stronger effect = higher value
The figure you give is taken to be in %; do not add the unit.

[[record]]
molecule = "CCCCC(CCC(=O)Nc1ccc(C(=O)OCC)cc1)C(=O)O (stereo unspecified)"
measurement_name = "inhibition"
recorded_measurement = -153

[[record]]
molecule = "CCCOc1ccc(C2C(C(=O)OC)=CN(CCOC)C=C2C(=O)OC)cc1"
measurement_name = "inhibition"
recorded_measurement = -128

[[record]]
molecule = "CCCCN1C(=O)C(O)=C(C(C)=O)C1c1ccc(OC)cc1OC (stereo unspecified)"
measurement_name = "inhibition"
recorded_measurement = -323

[[record]]
molecule = "O=C1C(=O)N(CCCn2ccnc2)C(c2ccccn2)/C1=C(/O)c1ccccc1 (stereo unspecified)"
measurement_name = "inhibition"
recorded_measurement = -259

[[record]]
molecule = "O=C(NCCCN1CCCC1=O)c1ccc2c(=O)n(Cc3ccco3)c(=S)[nH]c2c1"
measurement_name = "inhibition"
recorded_measurement = -69.5


Then this molecule:
Quick one: inhibition for "Cn1ncc(N=Cc2ccccc2O)c1C(=O)N1CCOCC1" ?
-60.6

----------
# assay_text: inhibitors of mutant huntingtin aggregation, primary screen, imaging, exon1htt(103Q)mCFP cells, high-content imaging (AID 483);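 note: compound exposure lasted 3 days before fixation; percent of the per-plate median nuclei count of sample wells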
# conditions: exon1htt(103Q)mCFP cell line, aggregate imaging, at 2 µM; measured here: cell count, toxicity
Reported values of nuclei count for individual entries
The figure you give is taken to be in %; do not add the unit.

[[record]]
molecule = "C=CCN1C(=O)C2(/C(=C(\\O)c3ccc4c(c3)OCCO4)C(=O)C(=O)N2CCCOC)c2ccccc21 (stereo not given)"
measurement_name = "nuclei count"
unit_spec = "%"
recorded_measurement = 104


Quick one: nuclei count for "O=C(CCCn1c(=O)c2sccc2n(Cc2cc(=O)n3ccccc3n2)c1=O)NCc1ccco1" ?
106

Quick one: nuclei count for Cc1ccc(-c2ccc(=O)n(CC(=O)NCCCN3CCCCC3C)n2)cc1 (stereo not given) ?
98.2

Quick one: nuclei count for "Cn1c(-c2ccccc2)cc(=O)c2ccccc21" ?
92.7

----------
# target_or_test_system: Voltage-gated potassium channel subunit beta-2 (Rattus norvegicus)
# assay_text: KvBeta positive modulators, primary screen, biochemical, NADPH fluorescence (AID 623);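 note: fluorescence intensity change per second fitted from 20 to 320 s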
# conditions: Recombinant KvBeta, NADPH fluorescence decrease slope, 10 min; at 10 µM; stronger effect = lower value
measurement_name: NADPH fluorescence slope
Reply with the value as a number alone.

Lab request: please report NADPH fluorescence slope under test system Voltage-gated potassium channel subunit beta-2 (Rattus norvegicus) for O=C(NCc1ccccn1)C(C(=O)c1ccc(F)cc1)n1ccccc1=O (stereo unspecified)
-3.8e-05

Lab request: please report NADPH fluorescence slope under test system Voltage-gated potassium channel subunit beta-2 (Rattus norvegicus) for "CCOC(=O)C1CCN(C(=O)c2ccc(Cl)c(Cl)c2)CC1"
1.1e-05

Lab request: please report NADPH fluorescence slope under test system Voltage-gated potassium channel subunit beta-2 (Rattus norvegicus) for "O=C(NC1CCN(Cc2nnnn2CCc2ccccc2)CC1)c1ccccc1F"
-3.3e-06

Lab request: please report NADPH fluorescence slope under test system Voltage-gated potassium channel subunit beta-2 (Rattus norvegicus) for "Brc1ccc2[nH]c3nc(SCCN4CCOCC4)nnc3c2c1"
1.6e-05

Lab request: please report NADPH fluorescence slope under test system Voltage-gated potassium channel subunit beta-2 (Rattus norvegicus) for "COc1ccc(CN(C#N)c2nc(SC)nc(N(C)C)n2)cc1"
-4.7e-05

Lab request: please report NADPH fluorescence slope under test system Voltage-gated potassium channel subunit beta-2 (Rattus norvegicus) for "CNC(=O)c1ccc(N(Cc2ccccc2C)S(C)(=O)=O)cc1"
-4.1e-05

Data origin, for the record: PubChem BioAssay
